Tested on: Staphylococcus epidermidis
Assay: Antibacterial activity against methicillin-resistant Staphylococcus epidermidis isolate cpu2623 after 18 to 20 hrs by agar dilution method
Type: functional
Listed compounds paired with reported MIC
Return type: number; implicit unit mg/L.

C=C[C@]1(C)C[C@@H](OC(=O)CSCc2csc(NC(=O)CN3CCCC3)n2)[C@]2(C)[C@H](C)CC[C@]3(CCC(=O)[C@H]32)[C@@H](C)[C@@H]1O    0.5
C=C[C@]1(C)C[C@@H](OC(=O)CSCc2csc(NC(=O)CNCC(=O)OC)n2)[C@]2(C)[C@H](C)CC[C@]3(CCC(=O)[C@H]32)[C@@H](C)[C@@H]1O    0.5

Now look at this entry.
INPUT: Using Staphylococcus epidermidis as the test system, report measured MIC of C=C[C@]1(C)C[C@@H](OC(=O)CSCc2csc(NC(=O)CN(CCC)CCC)n2)[C@]2(C)[C@H](C)CC[C@]3(CCC(=O)[C@H]32)[C@@H](C)[C@@H]1O .
OUTPUT: 0.5

---

System: Staphylococcus epidermidis
Assay: Antibacterial activity against methicillin-sensitive Staphylococcus epidermidis isolate cpu0315 after 18 to 20 hrs by agar dilution method
Format: functional
READOUT NAME: MIC (µg/mL)
Number only, in µg/mL; omit the unit.

Completed entries (count: 4):
C=C[C@]1(C)C[C@@H](OC(=O)CSCc2csc(NC(=O)CN3CCCCC3)n2)[C@]2(C)[C@H](C)CC[C@]3(CCC(=O)[C@H]32)[C@@H](C)[C@@H]1O    0.0625
C=C[C@]1(C)C[C@@H](OC(=O)CSCc2csc(NC(=O)CNCC(=O)OC)n2)[C@]2(C)[C@H](C)CC[C@]3(CCC(=O)[C@H]32)[C@@H](C)[C@@H]1O    4
C=C[C@]1(C)C[C@@H](OC(=O)CSCc2csc(N)n2)[C@]2(C)[C@H](C)CC[C@]3(CCC(=O)[C@H]32)[C@@H](C)[C@@H]1O    0.125
C=C[C@]1(C)C[C@@H](OC(=O)CSCc2csc(NC(=O)CNC3CCCCC3)n2)[C@]2(C)[C@H](C)CC[C@]3(CCC(=O)[C@H]32)[C@@H](C)[C@@H]1O    1

Here is another molecule to look at.
INPUT: Report MIC for CC1(C)S[C@@H]2[C@H](NC(=O)[C@H](N)c3ccc(O)cc3)C(=O)N2[C@H]1C(=O)O
OUTPUT: 0.125
